# Test system: ACHN renal
# protocol_text: NCI tumour cell line growth inhibition, 48 h
metric_name: TGI

Completed entries (count: 5):
{"columns": ["compound", "metric_name", "measured_result"],
 "data": [
  ["Cc1cc2oc(C)c(S(=O)(=O)NC(=O)Nc3ccc(Cl)cc3)c(=O)c2c(=O)o1", "TGI", "> 100 µM"],
  ["Cc1cc(N2CCCC2)c([N+](=O)[O-])cc1[N+](=O)[O-]", "TGI", "> 100 µM"],
  ["Nc1nc(=O)n(C2OC(CO)C(O)C2O)c2ncc(-c3ccc(-c4ccccc4)cc3)nc12 (configuration not stated)", "TGI", "> 100 µM"],
  ["O=C(CNc1ccc2c(=S)c3ccccc3[nH]c2c1)Nc1ccccc1-c1ccccc1NC(=O)CNc1ccc2c(=S)c3ccccc3[nH]c2c1", "TGI", "28.5 µM"],
  ["CC(C)C(=O)[O-].CC(C)C(=O)[O-].N.N.N.N.[Co+3].[O-][Cl+3]([O-])([O-])[O-]", "TGI", "> 100 µM"]
]}

Kindly give each listed record's TGI.
1. CCNNC(=O)[C@@H]1[C@H](c2cc(OC)c(OC)c(OC)c2)c2cc3c(cc2[C@H](O)[C@H]1CO)OCO3
2. Cc1cc(N(CCCNc2ccnc3cc(Cl)ccc23)Cc2ccc3c(c2)OCO3)nc(N2CCCCC2)n1

Response:
> 100 µM
4.84 µM

---

Give TGI for every item shown.
# System: SN12C renal
# protocol_text: NCI tumour cell line growth inhibition, 48 h

# count of solved cases: 5
{"columns": ["molecule", "TGI"],
 "data": [
  ["CC1CCCc2c1c1ccc3c(O)cccc3c1oc2=O (centres undefined)", "> 100 µM"],
  ["O=C(c1ccc(O)c([N+](=O)[O-])c1)c1ccc(O)c([N+](=O)[O-])c1", "> 100 µM"],
  ["COC(=O)[C@H](C)NC(=O)[C@@H](OC)[C@@H]1Cc2cc3cc(OC4CC(OC5CC(O)C(O)C(C)O5)C(O)C(C)O4)c(C)c(O)c3c(O)c2C(=O)[C@H]1OC1CC(OC2CC(OC3CC(C)(O)C(O)C(C)O3)C(O)C(C)O2)C(O)C(C)O1 (some centres undefined)", "> 50 µM"],
  ["CCCN(CCC)C1CCc2c(ccc3cc[nH]c23)C1 (centres undefined)", "> 100 µM"],
  ["CN(Cc1cnc2nc(N)nc(N)c2n1)c1ccc(C(=O)NC(CCC(=O)NC(CC(P(=O)(O)O)P(=O)(O)O)C(=O)O)C(=O)O)cc1 (centres undefined)", "> 100 µM"]
]}

Count: 4. Required value per item: TGI.
1. NC(=O)c1ccccc1NC(=O)c1ccccc1Cl
2. N[C@H](CCC(=O)NCP(=O)(O)O)C(=O)O
3. CCOC(=O)C(C(=O)OCC)C(=O)c1ccccc1C(=O)c1ccccc1
4. COc1cc(C2CC(=O)Nc3c2ccc2ccccc32)cc(Br)c1OC (centres undefined)

Response:
["> 100 µM", "> 100 µM", "> 100 µM", "> 43.6 µM"]

---

# Test system: SNB-19 CNS
# protocol_text: NCI tumour cell line growth inhibition, 48 h
Would you kindly list TGI for each of these molecules?

Before answering, review these 8 worked examples.
{"columns": ["molecule", "TGI"],
 "data": [
  ["NS(=O)(=O)c1ccc(-n2ncc3c(Nc4ccccc4)ncnc32)cc1", "> 100 µM"],
  ["CCOC(=O)C(=O)CC(=O)C1=C(c2ccccc2OC)CC(c2cccs2)=CC1=O", "> 100 µM"],
  ["O=C(O)c1ccccc1N=Nc1ccc2oc(=O)c(C(=O)Nc3ccccc3)cc2c1", "> 100 µM"],
  ["CCN(CC)CCOc1ccc(C(O)(Cc2ccc(OC)cc2)c2ccccc2)cc1 (stereo unspecified)", "67.5 µM"],
  ["COc1cc(/C=C\\c2ccc(Br)cc2)cc(OC)c1OC", "> 100 µM"],
  ["CC1CCCc2c1c1ccc3c(O)cccc3c1oc2=O (stereo unspecified)", "> 100 µM"],
  ["CCN(CC)c1ccc(N=C2C=C(Cl)C(=O)c3ncccc32)c(C)c1", "89.4 µM"],
  ["COC1=C2C=[N+](C)C3C(=C2C=CC1OC)Cc1cc2c(cc13)OCO2 (stereo unspecified)", "17.2 µM"]
]}

Please give TGI, item by item, for the list that follows.
1. CCCCCCCCCCCCCCCCCC(=O)Nc1ccn(C2CCC(COP(=O)(O)O)O2)c(=O)n1 (stereo unspecified)
2. CC(=O)OC1CCC2C(=CCC3C2(C)C(=O)CC2(C)C(C4(C)OC(C(C)C)=CC4=O)C(O)CC32C)C1(C)C (stereo unspecified)
3. COc1ccc(C2SCC(=O)N2NC(=O)C(C)Oc2ccccc2C)cc1 (stereo unspecified)
4. COc1ccc(-c2ccc(-c3ccc(C(=N)N)cn3)o2)cc1Cl
5. Nc1ccc2ccc(-c3ccc[nH]3)nc2n1

Response:
> 100 µM
> 100 µM
> 100 µM
3.4 µM
> 100 µM

---

Could you please report measured TGI for the items listed next?
# Tested on: NCI-H226 lung
# protocol_text: NCI tumour cell line growth inhibition, 48 h

{"columns": ["smiles_string", "TGI"],
 "data": [
  ["Nc1cc(S(N)(=O)=O)ccc1SSc1ccc(S(N)(=O)=O)cc1N", "> 100 µM"],
  ["CN(C)CCSCCO", "> 100 µM"],
  ["COc1c(Cl)ccc2c(-c3nc4cc(Cl)c(F)cc4s3)cc(=O)oc12", "> 69.3 µM"],
  ["Cc1ccc(C=NC23CC4CC(CC(C4)C2)C3)cc1", "> 100 µM"],
  ["O=C(O)c1ccccc1N=Nc1ccc2oc(=O)c(C(=O)Nc3ccccc3)cc2c1", "> 100 µM"]
]}

Query: Provide the reported TGI (system: NCI-H226 lung) for Cc1ncc(CCl)c(CCl)c1O
Response: > 100 µM

---

# System: BT-549 breast
# protocol_text: NCI tumour cell line growth inhibition, 48 h; in the data active means GI50 below about 0.43 µM; inactive means the rest
Hello, when you answer, please use one of the following outcomes: y for active, n for inactive

{"columns": ["molecule", "group"],
 "data": [
  ["COc1ccc(-c2cc(-c3cccc(NS(C)(=O)=O)c3)nc(N)c2C#N)cc1", "y"],
  ["CC(C)C[C@H](NC(=O)[C@@H](NC(=O)c1cccc(-c2ccccc2)n1)[C@@H](C)O)B(O)O", "y"],
  ["CNC1=C(C(=O)OC)SC(c2ccccc2)(c2ccccc2)SC1", "n"]
]}

Query: // return assay outcome for C=C1C(OC/C=C/COC2O[C@@H]3O[C@@]4(C)CC[C@H]5[C@H](C)CC[C@@H](C2=C)[C@@]35OO4)O[C@@H]2O[C@@]3(C)CC[C@H]4[C@H](C)CC[C@@H]1[C@@]24OO3 (some centres undefined)
Response: n

---

Consider the following compounds; for each one, report its TGI.
# Tested on: SK-MEL-5 melanoma
# protocol_text: NCI tumour cell line growth inhibition, 48 h

// worked examples, TGI included
{"columns": ["compound", "metric_name", "measured_result"],
 "data": [
  ["C[n+]1c2ccccc2c(/C=N\\NS(=O)(=O)c2ccc(Cl)cc2)c2ccccc21", "TGI", "> 100 µM"],
  ["COC12C=CC(C=C1C#N)CC2 (stereo unspecified) (tested in a mixture with another compound)", "TGI", "> 100 µM"],
  ["COc1c(Cl)ccc2c(-c3nc4cc(Cl)c(F)cc4s3)cc(=O)oc12", "TGI", "> 88.4 µM"],
  ["CCOc1nccc2c1nc(-c1nonc1N)n2CC", "TGI", "> 25 µM"],
  ["COC(=O)C1=CON2C3CC4CC(C3)CC(C4)C12C (stereo unspecified)", "TGI", "> 100 µM"]
]}

Please examine the following record next.
Query: Report TGI, nothing else, for this compound: CCc1ccc2nccc(NCCCN(C)C)c2c1[N+](=O)[O-]
Response: > 100 µM

---

I'd appreciate it if you could supply TGI values for the items below.
# Test system: NCI-H226 lung
# protocol_text: NCI tumour cell line growth inhibition, 48 h

{"columns": ["molecule", "measured_result"],
 "data": [
  ["O=c1cccccc1[O-].O=c1cccccc1[O-].O=c1cccccc1[O-].[Ce+3]", "> 100 µM"],
  ["CC(=O)OCCCCn1cc(Cn2ccc(=O)n(Cc3cn(CCCCOC(C)=O)nn3)c2=O)nn1", "> 100 µM"],
  ["COc1cc(CCN(C)C)cc(OC)c1OC", "> 100 µM"]
]}

Query: Please give measured TGI of the following entry: COc1ccc2[nH]c(C(=O)N3CC(CCl)c4c3cc(N)c3ccccc43)cc2c1 (centres undefined)
Response: < 0.0225 µM

---

Provide the reported TGI of each item.
# Test system: KM20L2 colon
# protocol_text: NCI tumour cell line growth inhibition, 48 h
Answers are plain numbers, in µM.

Check out these entries, answers already filled in.
{"columns": ["compound", "TGI (µM)"],
 "data": [
  ["O=C(N/C(=C\\c1ccc(/C=C(\\NC(=O)c2ccccc2)c2nc3ccccc3s2)cc1)c1nc2ccccc2s1)c1ccccc1", 11.2],
  ["CC(=O)[O-].[Zn].c1ccc(/C(=N\\Nc2ccccn2)c2ccccn2)cc1", 1.75],
  ["S=c1sc2cscc2s1", 66.5]
]}

Now consider the entry below.
Query: Please report TGI with KM20L2 colon for item CC(=O)OC1CCC2C(=CCC3C2(C)C(=O)CC2(C)C(C4(C)OC(C(C)C)=CC4=O)C(O)CC32C)C1(C)C (stereo not given) .
Response: 51.4
